meta.source: the METLIN SMRT retention time set (Domingo-Almenara et al. 2019)

experiment: gradient 5% acetonitrile 3 min, to 50% in 2 min, to 85% in 15 min, held 3 min, 100 µL/min; conditions: column: Zorbax Extend-C18 2.1 x 50 mm; eluents: water / acetonitrile, 0.1% formic acid
PROPERTY LABEL: RP-LC retention time (s)

CC1CCN(C(=O)c2cn(-c3cc(-c4nc(C(C)C)no4)ccn3)cn2)CC1; 640
CCCNC(=O)c1cn(-c2cc(-c3nc(C)no3)ccn2)cn1; 706
Cc1oc(-c2ccccc2)nc1Cc1noc(Cc2c[nH]c3ccccc23)n1; 1010
COCc1nnc(NC(=O)C2CC(=O)N(CCc3c[nH]c4ccc(Cl)cc34)C2)s1 (stereo not drawn); 724
CC(=O)N1CCC(C2CCN(C(=O)C3CC=CCC3)C2)CC1 (stereo not drawn); 691
CCOc1ccc(NC(=O)CN2C(=O)C3CCCCN3c3ccc(S(=O)(=O)N(C)C)cc32)cc1 (stereo not drawn); 945
COc1ccc(Cl)cc1NC(=O)N(C)CCc1noc(COc2ccccc2F)n1; 979
CCC(=O)N(C1CCOCC1)C1CCN(Cc2cc(F)c(F)c(F)c2)CC1; 625
COc1ccc(CNC(=O)C2CCN(S(=O)(=O)c3ccc4c(c3)NC(=O)C(C)O4)CC2)cc1 (stereo not drawn); 788
CCN(CC)CCNC(=O)C1CCN(c2nc3cccnc3s2)CC1; 573
COc1ccc(NC(=O)c2csc3c2CCCC3)cc1; 894
CCc1cc(N2CCN(C(=O)c3ccccc3)CC2)nc2nnc(C)n12; 604
CNC(=O)c1noc([C@@H]2CC(F)(F)CN2C(=O)c2cccn2C)n1; 712

---

assay: gradient 5% acetonitrile 3 min, to 50% in 2 min, to 85% in 15 min, held 3 min, 100 µL/min; conditions: column: Zorbax Extend-C18 2.1 x 50 mm; eluents: water / acetonitrile, 0.1% formic acid
PROPERTY LABEL: RP-LC retention time (s)

O=C(NCc1cc(-c2ccccc2F)on1)c1ccccc1Br; 810
O=C(NCc1cccc(Cl)c1)c1ccc(CN2CCN(C3CCCC3)C(=O)C2=O)cc1; 785
CC1CCN(S(=O)(=O)c2ccc3nn(CC#N)c(=O)n3c2)CC1; 813
CC1=C(c2cccc(Cl)c2)S(=O)(=O)N=C1N1CCC(NC(=O)c2ccoc2)CC1; 799
CSc1ccccc1C(=O)NCc1cc(-c2cccs2)on1; 796
CC1(C(=O)NCc2ccccc2)CN(S(=O)(=O)c2ccccc2)CC(=O)N1C1CCCC1 (centres undefined); 787
O=C(NC1CC1)c1cc(-c2cccs2)on1; 788
CCn1cc(CCNC(=O)Nc2ccc(Cl)cc2F)c2cccnc21; 824
Cc1cccc(NC(=O)C2CCCN(S(=O)(=O)c3cn(C(C)C)cn3)C2)c1 (centres undefined); 803

---

assay: gradient 5% acetonitrile 3 min, to 50% in 2 min, to 85% in 15 min, held 3 min, 100 µL/min; conditions: column: Zorbax Extend-C18 2.1 x 50 mm; eluents: water / acetonitrile, 0.1% formic acid
PROPERTY LABEL: RP-LC retention time (s)

Study these solved cases before continuing.
CC(C)(C)c1noc(-c2ccc(=O)n(Cc3cccc(Cl)c3)n2)n1; 1150
Cc1cccc(-n2c(=O)c3c(cc(C)n3C)n(CC(=O)Nc3ccc(C)cc3C)c2=O)c1; 912
Cc1c(Cl)cccc1NC(=O)C(C)n1cnc2nc3c(cc2c1=O)CCCC3 (centres undefined); 805
Cc1ccc(NC(=O)Nc2ccc3nc(N4CCN(C)CC4)cc(C)c3c2)cc1F; 614
COc1ccc(OC)c(NC(=O)Cc2csc3nc(-c4ccc(C)c(C)c4)cn23)c1; 772

[P] COc1ccc(C(=O)Nc2nccnc2C(=O)NCCN2CCCCC2)cc1
[Q] Cc1ccc(NC(=O)Cn2cnc3c(sc4nc(-c5ccccc5)ccc43)c2=O)c(F)c1
Hi! Which is lower in terms of RP-LC retention time, the first one P or the second one Q ? Answer by quoting the chosen item's label.
P
(P: 590 s, Q: 982 s)

---

assay: gradient 5% acetonitrile 3 min, to 50% in 2 min, to 85% in 15 min, held 3 min, 100 µL/min; conditions: column: Zorbax Extend-C18 2.1 x 50 mm; eluents: water / acetonitrile, 0.1% formic acid
PROPERTY LABEL: RP-LC retention time (s)

COC(=O)c1ccc(C2NC(=O)c3[nH]nc(-c4ccc(OC)cc4)c32)cc1 (stereo not drawn); 702

[a] C=CCNC(=O)N1CCCN(C2=NS(=O)(=O)C(c3ccc(CC)cc3)=C2C)CC1
[b] Cc1ccc(C)c(N2CCN(S(=O)(=O)c3c(C)sc(C)c3-c3cc(C)[nH]n3)CC2)c1
// task: argmin of RP-LC retention time over [ a , b ] Write down the label attached to your selection.
a
(a: 790 s, b: 1150 s)

---

experiment: gradient 5% acetonitrile 3 min, to 50% in 2 min, to 85% in 15 min, held 3 min, 100 µL/min; conditions: column: Zorbax Extend-C18 2.1 x 50 mm; eluents: water / acetonitrile, 0.1% formic acid
PROPERTY LABEL: RP-LC retention time (s)

Reference set, count: 4
Cc1cc(C)cc(NC(=O)Cc2cn(C)c3ncccc23)c1; 689
Cc1ccc(-c2nc(-c3ccc(-n4ccnc4)nc3)no2)cc1; 794
COc1ccc(CC(=O)N(C)CC2(C)CCOCC2)cc1Cl; 818
CCc1ccc(S(=O)(=O)Nc2cc(-c3cn4ccc(C)cc4n3)ccc2C)cc1; 745

[a] COc1ccc(Cl)cc1NC(=O)c1cn2c(n1)CCCC2
[b] O=C(Nc1ccc(Br)cc1)C1CCCN(c2ncc(-c3ccccc3)cn2)C1 (stereo not drawn)
Given the two records a and b , choose the one whose RP-LC retention time value is lower. Mark your selection by writing its label.
a

---

test: gradient 5% acetonitrile 3 min, to 50% in 2 min, to 85% in 15 min, held 3 min, 100 µL/min; conditions: column: Zorbax Extend-C18 2.1 x 50 mm; eluents: water / acetonitrile, 0.1% formic acid
PROPERTY LABEL: RP-LC retention time (s)

Please review the following examples before continuing.
CCC(C)NC(=O)CCCn1c(=O)c2cccn2c2ccc(Br)cc21 (stereo not given); 894
Cn1cc(-c2ccncc2)cc1C(=O)NCc1cccc(Br)c1; 672
COc1ccc(-n2c(=O)n(C)c(=O)c3cc(C(=O)Nc4ccccc4C)cnc32)cc1; 849
COc1ccc(N2CCN(c3cc(SCC(=O)NCc4ccc(SC)cc4)ncn3)CC2)cc1; 897
Cc1nn(CCC(=O)Nc2ccccc2Cl)c(=O)c2nn(-c3ccccc3)c(C)c12; 827

[P] CCc1nc(-c2cc(S(=O)(=O)NCC(=O)NC3CCCC3)c(C)s2)no1
[Q] CN(C)C[C@@H]1CN(C)C[C@H]1NC(=O)NCc1ccc(OC(F)(F)F)cc1
Hey, between P and Q which has a smaller measured RP-LC retention time? Reply briefly: the label of your chosen item.
Q

---

experiment: gradient 5% acetonitrile 3 min, to 50% in 2 min, to 85% in 15 min, held 3 min, 100 µL/min; settings: column: Zorbax Extend-C18 2.1 x 50 mm; eluents: water / acetonitrile, 0.1% formic acid
PROPERTY LABEL: RP-LC retention time (s)

Answered cases to consult:
COc1ccc(NC(=O)CSc2nc3c(cc2C#N)C(=O)CC(C)(C)C3)c(OC)c1; 892
CCC(=O)N(C1CCOCC1)C1CCN(S(=O)(=O)c2ccccc2)CC1; 764
COc1cccc(CC2C(=O)Nc3ccc(Cl)cc32)c1OC (configuration not stated); 900
COCCNC(=O)Cn1c(=O)c2cccn2c2ccccc21; 655
COC(=O)c1ccc(NC(=O)Cn2cnc3nc(N4CCCC4)ncc3c2=O)cc1; 690

[P] COc1cccc(Nc2c(-c3ccc(SC)cc3)nc3cnccn23)c1
[Q] COCCOC1CCC12CCN(C(=O)c1cnc[nH]1)CC2 (configuration not stated)
Sorting ascending by RP-LC retention time, which comes first: P or Q ? Mark your selection by writing its label.
Q
(Q: 575 s, P: 912 s)

[I] CCc1nn2c(CNC(=O)c3ccc(C)c(F)c3)c(-c3ccccc3)nc2s1
[II] Cc1nnc(-c2ccc3ccn(CC(=O)Nc4ccccn4)c3c2)o1
Compare the recorded RP-LC retention time of I and II ; state which is larger. Could you answer with the label of the item you picked?
I

---

assay: gradient 5% acetonitrile 3 min, to 50% in 2 min, to 85% in 15 min, held 3 min, 100 µL/min; conditions: column: Zorbax Extend-C18 2.1 x 50 mm; eluents: water / acetonitrile, 0.1% formic acid
PROPERTY LABEL: RP-LC retention time (s)

[P] CSc1cccc(NC(=O)Cc2csc(SCC(=O)Nc3ccc(C)cc3)n2)c1
[Q] Cn1c(CCNC(=O)c2ccccc2F)nc2cccnc21
Could you tell me which of these two has the smaller RP-LC retention time figure? First: P Second: Q Your answer should be the label of the entry you select.
Q
(Q: 591 s, P: 900 s)

[A] CCC1CCCCN1CCCNC(=O)c1cc(S(=O)(=O)N2CCCC2)ccc1Cl (stereo unspecified)
[B] CCC(c1cccs1)N1C(=O)[C@H]2CN(S(=O)(=O)c3cc(C)ccc3C)C[C@H]2C1=O (stereo partly specified)
Parameter metric = RP-LC retention time. Return the lower-valued option from A and B . Reply briefly: the label of your chosen item.
A
(A: 661 s, B: 1090 s)
